Assay: chemical genetic growth profiling, strain panel (AID 1159580);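 note: tested at 20 µM; growth read once vehicle control cultures reached saturation at 30 °C; 1 = growth at the plate median or of vehicle wells; lower values mean less growth of the strain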
Conditions: S. cerevisiae deletion strains, growth OD, locus YDR477W, strain SNF1
The whole screen tested about 5,500 compounds, of which about 2,000 (36%) were called active. Roughly 18% stayed inconclusive and do not appear here. Cut-off read from the data, not from the text of the source: active = normalized growth mostly below about 0.91 (no sharp cut-off); inconclusive = no clear call, values can overlap the other calls; inactive = mostly above about 0.92. The list shows a part of the results.
Possible outcomes: label 1 = active, label 0 = inactive

compound	group
OC1CCN(c2cc(C(F)(F)F)nc3cc(Cl)cc(Cl)c23)CC1	label 0
CCCc1nc(-c2ccccn2)[nH]c(=O)c1CC1CC1	label 0
Cc1nc(-c2cccnc2)nc(NCc2ccccc2)c1Cl	label 0
COc1cccc(NC(=S)NC2CC(C)CC(C)(C)C2)c1 (stereo unspecified)	label 0
Cc1csc(NC(=O)Nc2ccc(C(F)(F)F)cc2)c1	label 0
O=C(NCCNc1ncc(Cl)cc1C(F)(F)F)C(F)(F)Sc1ccccc1	label 0
Cc1nc(-c2ccccn2)[nH]c(=O)c1Cc1c(Cl)cccc1Cl	label 0
Cc1csc(NC(=O)Nc2ccc(C(F)(F)F)cc2)c1Cl	label 0
Nc1ccc(Sc2ccccc2)nc1Sc1ccccc1	label 0
O=[N+]([O-])c1cnc(Sc2nnc(SCc3cccc(C(F)(F)F)c3)s2)s1	label 1
O=C(NCCNc1ncc(C(F)(F)F)cc1Cl)C(F)(F)Sc1ccccc1	label 0

###

Test: chemical genetic growth profiling, strain panel (AID 1159580);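 note: tested at 20 µM; growth read once vehicle control cultures reached saturation at 30 °C; 1 = growth at the plate median or of vehicle wells; lower values mean less growth of the strain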
Details: S. cerevisiae deletion strains, growth OD, locus YEL037C, strain rad23, active compounds read low
About 2,000 (36%) of roughly 5,500 compounds were called active. Roughly 18% stayed inconclusive and do not appear here. Some of the results follow.
Collected normalized growth values appear next to each entry.

compound	normalized growth
C[C@@H]1C(=O)O[C@H]2[C@H]1CC[C@@]1(C)C=CC(=O)[C@@]3(C)O[C@@]213	1.02
CC(C)=CCCC1(C)C=Cc2c(O)c3c(c(CC=C(C)C)c2O1)OC12C(=CCCC1C(C)(C)O[C@@]2(C/C=C(\C)C(=O)O)C(=O)O)C3=O (stereo partly drawn)	0.987
C[C@@H]1CC[C@H]2[C@@H](C)C(O)O[C@@H]3O[C@@]4(C)CC[C@@H]1[C@]32OO4 (stereo partly drawn)	0.407
C[C@@H]1CC[C@H]2[C@@H](C)C(=O)O[C@@H]3O[C@@]4(C)CC[C@@H]1[C@]32OO4	0.915
CC(C)=CCCC1(C)C=Cc2c(O)c3c(c(CC=C(C)C)c2O1)OC12C(=CC4CC1C(C)(C)OC2(C/C=C(/C)C(=O)O)C4=O)C3=O (stereo not drawn)	0.967
O=c1[nH]cc(F)c(=O)[nH]1	0.539
CCN1C[C@]2(OC(=O)c3ccccc3NC(C)=O)CCC(OC)[C@]34C1[C@H](CC23)[C@@]1(O)CC(OC)[C@H]2CC4C1(O)[C@H]2OC (stereo partly drawn)	0.958
Cc1ccnc(NS(=O)(=O)c2ccc(N)cc2)n1	1.01

###

Below, each entry is listed with its recorded normalized growth.
Experiment: chemical genetic growth profiling, strain panel (AID 1159580);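 note: tested at 20 µM; growth read once vehicle control cultures reached saturation at 30 °C; 1 = growth at the plate median or of vehicle wells; lower values mean less growth of the strain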
Conditions: S. cerevisiae deletion strains, growth OD, locus YJL134W, strain LCB3, active compounds read low
Among all 5,500 compounds or so, about 2,000 (36%) were called active. Inconclusive results (about 18%) are left out. The list shows a part of the results.
measured metric: normalized growth

molecule	reported measurement
COc1ccc2c(c1)c(CC(=O)O)c(C)n2C(=O)c1ccc(Cl)cc1	0.997 (inactive)
C#C[C@]1(O)CCC2C3CCC4=CC(=O)CC[C@@H]4C3CC[C@@]21C (stereo not given in full)	0.995 (inactive)
Cc1ccc(S(=O)(=O)NC(=O)NN2CC3CCCC3C2)cc1 (stereo not given)	1 (inactive)
CC(=O)OC1CC[C@@]2(C)C(CC[C@]3(C)C2CCC2C4CC(C)(C)CCC4(C(=O)O)CC[C@]23C)C1(C)C (stereo not given in full)	0.994 (inactive)
C#C[C@]1(O)CCC2C3CCC4=C(CCC(=O)C4)C3CC[C@@]21C (stereo not given in full)	1.02 (inactive)
COC(=O)C[C@H]1C(C)(C)C2(O)OC34CC2C(=O)[C@]1(C)C3CC[C@]1(C)C4=CC(=O)O[C@H]1c1ccoc1 (stereo not given in full)	1 (inactive)
COC(=O)Nc1nc2ccc(C(=O)c3ccccc3)cc2[nH]1	1 (inactive)
C[C@@H]1OC(O[C@H]2C(O[C@H]3CC[C@@]4(C)C(CC[C@]5(C)C4CC=C4C6CC(C)(C)CC[C@]6(C(=O)O)CC[C@]45C)[C@]3(C)CO)OC[C@H](O)[C@@H]2O)[C@H](O)[C@H](O)[C@H]1O (stereo not given in full)	0.187 (active)
O=C1C(O)=C(O)C(=O)C(O)=C1O	0.995 (inactive)
NCCC(=O)N[C@@H](Cc1cnc[nH]1)C(=O)O	0.988 (inactive)
